binders and their reported Bmax
target: T1, human CD47-Fc fusion protein (R&D systems) (human, UniProt Q08722 19-141); assay: ELISA, plate coated with human CD47-Fc; design: unit not given here
T1 construct: Bought (R&D systems); also called Fc-tagged CD47; not shown: Fc part of the bought fusion protein
Lab note: write the figure by itself, no unit.

5F9/M89 (5F9 heavy chain with M89 light chain) (antibody, human IgG1, V domains shown, Light chain shuffle construct; human IgG1 / kappa constant regions) VH: QVQLVQSGAEVKKPGASVKVSCKASGYTFTNYNMHWVRQAPGQRLEWMGTIYPGNDDTSYNQKFKDRVTITADTSASTAYMELSSLRSEDTAVYYCARGGYRAMDYWGQGTLVTVSS VL: EIVLTQSPATLSLSPGERATLSCRASQSVGGSYLAWYQQKPGQAPRLLIYGASRRATGIPARFSGSGSGTDFTLTISSLQPEDFASYFCQQTNTFPLTFGGGTKVEIK	4.22
5F9/UIC2 (5F9 heavy chain with UIC2 light chain) (antibody, human IgG1, V domains shown, Light chain shuffle construct; human IgG1 / kappa constant regions) VH: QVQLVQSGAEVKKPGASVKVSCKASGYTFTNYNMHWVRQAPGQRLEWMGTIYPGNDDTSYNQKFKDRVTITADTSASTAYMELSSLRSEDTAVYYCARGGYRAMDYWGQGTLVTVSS VL: DVVMTQTPRSLPVSLGDQASISCRSSQSLLHSNGNTYLHWYLQKPGQSPKLLIYKVSNRFSGVPDRFSGSGSGTDFTLKISRVEAEDLGVYFCSQSTHIPPWTFGGGTKLDIK	3.08

Read off the recorded Bmax for anti-CD47 antibody 5F9 (antibody, human IgG1, V domains shown, Variable regions cloned on human IgG1 / human kappa constant regions; also called 5F9/5F9; KT14) VH: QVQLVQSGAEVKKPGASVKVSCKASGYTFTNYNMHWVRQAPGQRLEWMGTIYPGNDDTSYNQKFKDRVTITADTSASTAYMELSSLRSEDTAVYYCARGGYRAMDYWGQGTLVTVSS VL: DIVMTQSPLSLPVTPGEPASISCRSSQSIVYSNGNTYLGWYLQKPGQSPQLLIYKVSNRFSGVPDRFSGSGSGTDFTLKISRVEADVGVYYCFQGSHVPYTFGQGTKLEIK
2.78

Complete the entry with Bmax for 5F9/15D3 (5F9 heavy chain with 15D3 light chain) (antibody, human IgG1, V domains shown, Light chain shuffle construct; human IgG1 / kappa constant regions) VH: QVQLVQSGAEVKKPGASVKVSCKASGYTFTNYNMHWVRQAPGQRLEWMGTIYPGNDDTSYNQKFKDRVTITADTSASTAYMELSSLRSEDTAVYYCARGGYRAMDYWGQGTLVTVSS VL: DVLMTQTPLSLPVSLGDQASISCRSSQSIVHSTGNTYLEWYLQKPGQSPKLLIYKVSNRFSGVPDRFSGSGSGTDFTLKISRLEAEDLGVYYCFQGSHFPRTFGGGTRLEIK
2.96

Quickly give me recorded Bmax for 5F9/MRK16 (anti-CD47 antibody with two 5F9 heavy chains and two MRK16 light chains) (antibody, human IgG1, V domains shown, Human IgG1 / kappa constant regions; also called KT14/MRK16 monoclonal; KT14_MRK16) VH: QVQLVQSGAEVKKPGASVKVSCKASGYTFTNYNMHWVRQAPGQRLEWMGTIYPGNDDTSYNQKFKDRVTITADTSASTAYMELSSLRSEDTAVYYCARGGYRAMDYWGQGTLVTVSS VL: DVLMTQTPVSLSVSLGDQASISCRSSQSIVHSTGNTYLEWYLQKPGQSPKLLIYKISNRFSGVPDRFSGSGSGTDFTLKISRVEAEDLGVYYCFQASHFPRTFGGGTKLEIK
2.94

Every entry's value here was drawn from patent US20220204627A1.
